Biological target: IadK2 mutants (Variovorax paradoxus, UniProt T1X8R6, S104V/W172L)
Test: ITC, IAA binding to IadK2 mutants
Set-up: species or system Variovorax paradoxus CL14
Settings: IadK2 mutant W172L/S104V, replicates
Experimental endpoint: Kd

> print(dat)
                                   molecule                               system.name  observed.value
1  O=C(O)Cc1c[nH]c2ccccc12 [IAA, indole-3-acetic acid]  IadK2 mutants (Variovorax paradoxus, UniProt T1X8R6, S104V/W172L)        > 100 µM

---

Target: IadK2 mutants (Variovorax paradoxus, UniProt T1X8R6, Y311A)
Sequence (T1X8R6 entry or part of it Y311A): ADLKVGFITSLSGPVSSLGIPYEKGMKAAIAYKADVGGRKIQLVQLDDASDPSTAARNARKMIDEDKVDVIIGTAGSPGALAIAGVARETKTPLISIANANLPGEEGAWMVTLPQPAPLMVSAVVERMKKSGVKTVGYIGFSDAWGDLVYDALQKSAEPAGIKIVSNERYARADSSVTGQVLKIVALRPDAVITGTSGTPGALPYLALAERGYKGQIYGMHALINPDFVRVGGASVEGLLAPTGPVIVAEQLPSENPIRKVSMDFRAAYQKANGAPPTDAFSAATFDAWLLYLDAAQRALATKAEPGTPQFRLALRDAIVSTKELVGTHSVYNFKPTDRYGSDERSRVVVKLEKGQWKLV
Assay: ITC, IAA binding to IadK2 mutants
Design: species or system Variovorax paradoxus CL14
Conditions: Kd, IadK2 Y311A, IAA; mean ± SD
Experimental endpoint: Kd

> print(dat)
                                   molecule                               system.name  observed.value
1  O=C(O)Cc1c[nH]c2ccccc12 [IAA, indole-3-acetic acid]  IadK2 mutants (Variovorax paradoxus, UniProt T1X8R6, Y311A)           21 µM
